molecular target: FGFR1 (Homo sapiens, UniProt P11362); experiment: Mobility shift assay, FGFR1 kinase inhibition
Sequence (P11362 22-822): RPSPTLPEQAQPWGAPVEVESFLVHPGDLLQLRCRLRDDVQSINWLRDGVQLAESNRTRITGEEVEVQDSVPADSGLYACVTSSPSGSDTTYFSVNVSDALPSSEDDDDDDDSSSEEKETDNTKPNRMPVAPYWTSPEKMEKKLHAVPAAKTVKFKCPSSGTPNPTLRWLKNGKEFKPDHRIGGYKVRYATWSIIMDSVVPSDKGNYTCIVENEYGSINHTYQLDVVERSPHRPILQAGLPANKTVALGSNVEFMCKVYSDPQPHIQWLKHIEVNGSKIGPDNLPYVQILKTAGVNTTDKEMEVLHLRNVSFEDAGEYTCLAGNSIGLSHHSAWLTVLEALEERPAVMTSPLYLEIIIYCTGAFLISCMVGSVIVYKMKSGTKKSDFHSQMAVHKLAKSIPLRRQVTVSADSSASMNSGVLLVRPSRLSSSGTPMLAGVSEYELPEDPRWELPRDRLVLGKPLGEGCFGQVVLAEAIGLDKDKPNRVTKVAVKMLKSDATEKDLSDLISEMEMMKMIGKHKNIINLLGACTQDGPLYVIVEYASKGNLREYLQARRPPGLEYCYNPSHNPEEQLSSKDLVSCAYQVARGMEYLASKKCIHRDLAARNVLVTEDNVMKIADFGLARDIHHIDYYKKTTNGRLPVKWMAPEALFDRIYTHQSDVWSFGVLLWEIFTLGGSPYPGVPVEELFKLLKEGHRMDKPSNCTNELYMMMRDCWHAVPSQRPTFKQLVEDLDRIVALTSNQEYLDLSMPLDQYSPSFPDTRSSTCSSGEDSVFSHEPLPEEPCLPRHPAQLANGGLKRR
quantity.measured: IC50

These recorded examples may help you get a feel for the data.
compound="C=CC(=O)Nc1cccc(C)c1Nc1cc2c(cn1)cc(-c1cc(OC)cc(OC)c1)c(=O)n2CCCN1CCCCC1 [Compound 22]" system_name="FGFR1 (Homo sapiens, UniProt P11362)" quantity_measured=IC50 value_reported="> 5 µM"
compound="C=CC(=O)Nc1cccc(C)c1Nc1cc2c(cn1)cc(-c1c(Cl)c(OC)cc(OC)c1Cl)c(=O)n2CCCO [Compound 30]" system_name="FGFR1 (Homo sapiens, UniProt P11362)" quantity_measured=IC50 value_reported="> 5 µM"

Below: the item to evaluate.
State, in one line, measured IC50 of C=CC(=O)Nc1cccc(C)c1Nc1cc2c(cn1)cc(-c1c(Cl)c(OC)cc(OC)c1Cl)c(=O)n2CCCN1CCCCC1 [Compound 23]
> 5 µM
